Kindly supply the reported fraction unbound at 6 h, 1 µM values for the records listed here.
Experiment: Fraction unbound in Wistar Han rat brain homogenates at 1 uM after 6 hrs by equilibrium dialysis method
Details: brain homogenate
Reply with just the number.

INPUT: # query: fraction unbound at 6 h, 1 µM of entry CCCNC(=O)NS(=O)(=O)c1ccc(Cl)cc1 [CHLORPROPAMIDE]
OUTPUT: 0.223

INPUT: Record: CO[C@H]1/C=C/O[C@@]2(C)Oc3c(C)c(O)c4c(O)c(c(/C=N/N5CCN(C)CC5)c(O)c4c3C2=O)NC(=O)/C(C)=C\C=C\[C@H](C)[C@H](O)[C@@H](C)[C@@H](O)[C@@H](C)[C@H](OC(C)=O)[C@@H]1C
OUTPUT: 0.121

INPUT: Record: CC(CC(c1ccccc1)c1ccccc1)NC(C)(C)C (stereo not drawn)
OUTPUT: 0.025

INPUT: Record: CCCCN1CCCCC1C(=O)Nc1c(C)cccc1C (stereo not drawn)
OUTPUT: 0.15

INPUT: Record: NC12CC3CC(CC(C3)C1)C2
OUTPUT: 0.213

INPUT: Record: CC(=O)CC(c1ccccc1)c1c(O)c2ccccc2oc1=O (stereo not drawn)
OUTPUT: 0.183

INPUT: Record: Cc1c(C(=O)NN2CCCCC2)nn(-c2ccc(Cl)cc2Cl)c1-c1ccc(Cl)cc1
OUTPUT: 0.0004

INPUT: Record: COCCOC(=O)C1=C(C)NC(C)=C(C(=O)OC(C)C)C1c1cccc([N+](=O)[O-])c1 (stereo not drawn)
OUTPUT: 0.01

###

Assay: Fraction unbound in Sprague-Dawley rat brain homogenates at 1 uM after 6 hrs by equilibrium dialysis method
Details: brain homogenate
Decide by fraction unbound at 6 h, 1 µM: equal to or exceeding 0.02 means t, less means f.

INPUT: Hi, just wondering whether NC(=O)N1c2ccccc2C=Cc2ccccc21 [CARBAMAZEPINE] shows fraction unbound at 6 h, 1 µM of 0.02 or higher.
OUTPUT: t

INPUT: Record: CN(C)CCCN1c2ccccc2CCc2ccc(Cl)cc21 [CLOMIPRAMINE]
OUTPUT: f

INPUT: Record: O=C1NC(=O)C(c2ccccc2)(c2ccccc2)N1 [PHENYTOIN]
OUTPUT: t

INPUT: Record: COC(=O)C1=C(C)NC(C)=C(C(=O)OCCN(C)Cc2ccccc2)C1c1cccc([N+](=O)[O-])c1 (centres undefined) [NICARDIPINE]
OUTPUT: f

INPUT: Record: O=C(O[C@H]1CN2CCC1CC2)N1CCc2ccccc2[C@@H]1c1ccccc1 [SOLIFENACIN]
OUTPUT: f

INPUT: Record: NS(=O)(=O)Cc1noc2ccccc12 [ZONISAMIDE]
OUTPUT: t

INPUT: Record: CN(C)CCCN1c2ccccc2Sc2ccc(Cl)cc21 [CHLORPROMAZINE]
OUTPUT: f

INPUT: Record: CO[C@H]1/C=C/O[C@@]2(C)Oc3c(C)c(O)c4c(O)c(c(/C=N/N5CCN(C)CC5)c(O)c4c3C2=O)NC(=O)/C(C)=C\C=C\[C@H](C)[C@H](O)[C@@H](C)[C@@H](O)[C@@H](C)[C@H](OC(C)=O)[C@@H]1C [RIFAMPIN]
OUTPUT: t

INPUT: Record: CNCCCN1c2ccccc2CCc2ccccc21 [DESIPRAMINE]
OUTPUT: f

INPUT: Record: CCCNC(=O)NS(=O)(=O)c1ccc(Cl)cc1 [CHLORPROPAMIDE]
OUTPUT: t

INPUT: Record: O=c1n(CCCN2CCN(c3cccc(Cl)c3)CC2)nc2ccccn12 [TRAZODONE]
OUTPUT: t

INPUT: Record: NC1CCN(c2c(F)cc3c(=O)c(C(=O)O)cn(C4CC4)c3c2Cl)C1 (centres undefined) [CLINAFLOXACIN]
OUTPUT: t

INPUT: Record: CCN(CC)CCNC(=O)c1cc(Cl)c(N)cc1OC [METOCLOPRAMIDE]
OUTPUT: t

INPUT: Record: CC(NC(C)(C)C)C(=O)c1cccc(Cl)c1 (centres undefined) [BUPROPION]
OUTPUT: t

INPUT: Record: CC(C)C[C@H]1C(=O)N2CCC[C@H]2[C@]2(O)O[C@](NC(=O)[C@@H]3C=C4c5cccc6[nH]c(Br)c(c56)C[C@H]4N(C)C3)(C(C)C)C(=O)N12 [BROMOCRIPTINE]
OUTPUT: f

INPUT: Record: COc1ccc2c(c1)c(CC(=O)O)c(C)n2C(=O)c1ccc(Cl)cc1 [INDOMETHACIN]
OUTPUT: t

INPUT: Record: CN1CCCC(n2nc(Cc3ccc(Cl)cc3)c3ccccc3c2=O)CC1 (centres undefined) [AZELASTINE]
OUTPUT: f

INPUT: Record: CCN(CC)C(=O)/C(C#N)=C/c1cc(O)c(O)c([N+](=O)[O-])c1 [ENTACAPONE]
OUTPUT: f

###

Kindly supply the reported fraction unbound at 6 h, 1 µM values for the records listed here.
Test: Fraction unbound in Hartley guinea pig brain homogenates at 1 uM after 6 hrs by equilibrium dialysis method
Settings: brain homogenate
Reply with just the number.

INPUT: # query: fraction unbound at 6 h, 1 µM of entry COc1ccc2c(c1)c(CC(=O)O)c(C)n2C(=O)c1ccc(Cl)cc1
OUTPUT: 0.044

INPUT: Record: C[C@@H](O[C@H]1OCCN(Cc2n[nH]c(=O)[nH]2)[C@H]1c1ccc(F)cc1)c1cc(C(F)(F)F)cc(C(F)(F)F)c1 [APREPITANT]
OUTPUT: 0.001

INPUT: Record: CCN(CC)CCNC(=O)c1cc(Cl)c(N)cc1OC [METOCLOPRAMIDE]
OUTPUT: 0.237

INPUT: Record: CN(C)CCCC1(c2ccc(F)cc2)OCc2cc(C#N)ccc21 (centres undefined)
OUTPUT: 0.038

INPUT: Record: CCN(CC)C(=O)/C(C#N)=C/c1cc(O)c(O)c([N+](=O)[O-])c1
OUTPUT: 0.019

INPUT: Record: CNCCC=C1c2ccccc2CCc2ccccc21
OUTPUT: 0.006

INPUT: Record: CNCCCN1c2ccccc2CCc2ccccc21
OUTPUT: 0.007

INPUT: Record: CCCNC(=O)NS(=O)(=O)c1ccc(Cl)cc1 [CHLORPROPAMIDE]
OUTPUT: 0.65

INPUT: Record: Cc1ccc(C(=O)c2cc(O)c(O)c([N+](=O)[O-])c2)cc1
OUTPUT: 0.002

###

Experiment: Fraction unbound in Beagle dog brain homogenates at 1 uM after 6 hrs by equilibrium dialysis method
Details: brain homogenate
reported metric: fraction unbound at 6 h, 1 µM
Reply with just the number.

INPUT: # query: fraction unbound at 6 h, 1 µM of entry CCN(CC)C(=O)/C(C#N)=C/c1cc(O)c(O)c([N+](=O)[O-])c1 [ENTACAPONE]
OUTPUT: 0.02

INPUT: Record: NS(=O)(=O)Cc1noc2ccccc12 [ZONISAMIDE]
OUTPUT: 0.428

INPUT: Record: CN(C)CCCN1c2ccccc2Sc2ccc(Cl)cc21 [CHLORPROMAZINE]
OUTPUT: 0.003

INPUT: Record: CC(C)(C)NCC(O)COc1ccc(NC(=O)NC2CCCCC2)cc1 (stereo not given) [TALINOLOL]
OUTPUT: 0.247

INPUT: Record: NC12CC3CC(CC(C3)C1)C2 [AMANTADINE]
OUTPUT: 0.218

###

Experiment: Fraction unbound in cynomolgus monkey brain homogenates at 1 uM after 6 hrs by equilibrium dialysis method
Details: brain homogenate
reported metric: fraction unbound at 6 h, 1 µM
Reply with just the number.

INPUT: # query: fraction unbound at 6 h, 1 µM of entry O=C1CCc2ccc(OCCCCN3CCN(c4cccc(Cl)c4Cl)CC3)cc2N1 [ARIPIPRAZOLE]
OUTPUT: 0.001

INPUT: Record: CN1[C@@H]2CC[C@H]1C[C@@H](OC(=O)c1c[nH]c3ccccc13)C2 [TROPISETRON]
OUTPUT: 0.064

INPUT: Record: CNCCC=C1c2ccccc2CCc2ccccc21 [NORTRIPTYLINE]
OUTPUT: 0.009

INPUT: Record: CO[C@H]1/C=C/O[C@@]2(C)Oc3c(C)c(O)c4c(O)c(c(/C=N/N5CCN(C)CC5)c(O)c4c3C2=O)NC(=O)/C(C)=C\C=C\[C@H](C)[C@H](O)[C@@H](C)[C@@H](O)[C@@H](C)[C@H](OC(C)=O)[C@@H]1C [RIFAMPIN]
OUTPUT: 0.162

INPUT: Record: Fc1ccc([C@@H]2CCNC[C@H]2COc2ccc3c(c2)OCO3)cc1 [PAROXETINE]
OUTPUT: 0.006

INPUT: Record: CC(CC(c1ccccc1)c1ccccc1)NC(C)(C)C (stereo not drawn) [TERODILINE]
OUTPUT: 0.071

INPUT: Record: CN(C)CCCC1(c2ccc(F)cc2)OCc2cc(C#N)ccc21 (stereo not drawn) [CITALOPRAM]
OUTPUT: 0.061

INPUT: Record: CCCc1nc2c(C)cc(-c3nc4ccccc4n3C)cc2n1Cc1ccc(-c2ccccc2C(=O)O)cc1
OUTPUT: 0.013

Numbers sourced from ChEMBL document CHEMBL3525956.
